Give measured Ki for each item. Keep answers brief.
- targetUnderTest: Translocator protein (Rattus norvegicus, UniProt P16257)
- Sequence (P16257 whole entry, looked up): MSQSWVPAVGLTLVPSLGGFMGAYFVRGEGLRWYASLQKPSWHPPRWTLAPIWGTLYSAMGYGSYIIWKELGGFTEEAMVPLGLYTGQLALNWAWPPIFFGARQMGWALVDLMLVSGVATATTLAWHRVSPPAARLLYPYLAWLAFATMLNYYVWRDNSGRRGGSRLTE
- assaySummary: Displacement of [3H]Ro5-4864 from PBZR in rat kidney mitochondrial membranes measured after 90 mins by liquid scintillation counting
- Assay type: cell membranes
One number for each entry, in nM.

Please review the entries below; each comes with its answer.
INSERT INTO measurements (chemicalstructure, targetundertest, readout, testresult) VALUES
  ('CCC(CC)C(=O)Cc1c(-c2ccc(OC)cc2)nn2c(C)cc(C)nc12', 'Translocator protein (Rattus norvegicus, UniProt P16257)', 'Ki', 3.1),
  ('CCC(CC)C(=O)Cc1c(-c2ccc(Cl)cc2)nn2c(C)cc(C)nc12', 'Translocator protein (Rattus norvegicus, UniProt P16257)', 'Ki', 1.4),
  ('CCC(CC)C(=O)Cc1c(-c2ccc(C)cc2)nn2c(C)cc(C)nc12', 'Translocator protein (Rattus norvegicus, UniProt P16257)', 'Ki', 1.7);

Attention now turns to another entry.
Q: Would you mind telling me what Ki value was observed for CCC(CC)C(=O)Cc1c(-c2ccc(Cl)cc2)nn2c(C)cc(-c3ccccc3)nc12 ?
A: 2.7

###

- Tested on: Aspergillus fumigatus
- assaySummary: Antifungal activity against Aspergillus fumigatus RCMB 002006 assessed as zone of inhibition at 30 ug/ml
- Assay type: functional
- conditionContext: read-out: IZ
For each of the molecules below, state its zone of inhibition at 30 µg/mL.
Returns: string containing the numeric result and its unit.

Report zone of inhibition at 30 µg/mL for each item below.
1. CCC(C)n1ncn(-c2ccc(N3CCN(c4ccc(OCC5COC(Cn6cncn6)(c6ccc(Cl)cc6Cl)O5)cc4)CC3)cc2)c1=O (stereo not given) [ITRACONAZOLE]
2. Clc1ccccc1C(c1ccccc1)(c1ccccc1)n1ccnc1 [CLOTRIMAZOLE]
3. Nc1nn2c(-c3ccco3)cc(-c3ccco3)nc2c1/N=N/c1ccccc1

A:
1: 27.4 mm; 2: 26.3 mm; 3: 14.2 mm

Quick one: give me zone of inhibition at 30 µg/mL for each item below, same order please.
1. Cc1ccc(/N=N/c2c(N)nn3c(-c4ccco4)cc(-c4ccco4)nc23)cc1
2. Nc1nn2c(-c3cccs3)cc(-c3cccs3)nc2c1/N=N/c1ccccc1

A:
21.8 mm
15.2 mm

Value source: ChEMBL document CHEMBL3994587
